experimental target: hKvLQT1/hminK (IKs) channel (Homo sapiens, UniProt P51787)
test details: voltage clamp current block, hKvLQT1/hminK channel in stably transfected mammalian cells
experimental parameters: 0.067 Hz, 4 bpm, unit inferred; read-out: IC50, block of IKs (hKvLQT1/hminK) channels
endpoint name: IC50 (µM)
Express the result in µM but write the number alone.

Task: For the compound `Fc1ccc(C(OCCN2CCN(CCCc3ccccc3)CC2)c2ccc(F)cc2)cc1` , report IC50.
Output: 4.2

====

experimental target: UniProt:Q14524
Sequence (Q14524 whole entry): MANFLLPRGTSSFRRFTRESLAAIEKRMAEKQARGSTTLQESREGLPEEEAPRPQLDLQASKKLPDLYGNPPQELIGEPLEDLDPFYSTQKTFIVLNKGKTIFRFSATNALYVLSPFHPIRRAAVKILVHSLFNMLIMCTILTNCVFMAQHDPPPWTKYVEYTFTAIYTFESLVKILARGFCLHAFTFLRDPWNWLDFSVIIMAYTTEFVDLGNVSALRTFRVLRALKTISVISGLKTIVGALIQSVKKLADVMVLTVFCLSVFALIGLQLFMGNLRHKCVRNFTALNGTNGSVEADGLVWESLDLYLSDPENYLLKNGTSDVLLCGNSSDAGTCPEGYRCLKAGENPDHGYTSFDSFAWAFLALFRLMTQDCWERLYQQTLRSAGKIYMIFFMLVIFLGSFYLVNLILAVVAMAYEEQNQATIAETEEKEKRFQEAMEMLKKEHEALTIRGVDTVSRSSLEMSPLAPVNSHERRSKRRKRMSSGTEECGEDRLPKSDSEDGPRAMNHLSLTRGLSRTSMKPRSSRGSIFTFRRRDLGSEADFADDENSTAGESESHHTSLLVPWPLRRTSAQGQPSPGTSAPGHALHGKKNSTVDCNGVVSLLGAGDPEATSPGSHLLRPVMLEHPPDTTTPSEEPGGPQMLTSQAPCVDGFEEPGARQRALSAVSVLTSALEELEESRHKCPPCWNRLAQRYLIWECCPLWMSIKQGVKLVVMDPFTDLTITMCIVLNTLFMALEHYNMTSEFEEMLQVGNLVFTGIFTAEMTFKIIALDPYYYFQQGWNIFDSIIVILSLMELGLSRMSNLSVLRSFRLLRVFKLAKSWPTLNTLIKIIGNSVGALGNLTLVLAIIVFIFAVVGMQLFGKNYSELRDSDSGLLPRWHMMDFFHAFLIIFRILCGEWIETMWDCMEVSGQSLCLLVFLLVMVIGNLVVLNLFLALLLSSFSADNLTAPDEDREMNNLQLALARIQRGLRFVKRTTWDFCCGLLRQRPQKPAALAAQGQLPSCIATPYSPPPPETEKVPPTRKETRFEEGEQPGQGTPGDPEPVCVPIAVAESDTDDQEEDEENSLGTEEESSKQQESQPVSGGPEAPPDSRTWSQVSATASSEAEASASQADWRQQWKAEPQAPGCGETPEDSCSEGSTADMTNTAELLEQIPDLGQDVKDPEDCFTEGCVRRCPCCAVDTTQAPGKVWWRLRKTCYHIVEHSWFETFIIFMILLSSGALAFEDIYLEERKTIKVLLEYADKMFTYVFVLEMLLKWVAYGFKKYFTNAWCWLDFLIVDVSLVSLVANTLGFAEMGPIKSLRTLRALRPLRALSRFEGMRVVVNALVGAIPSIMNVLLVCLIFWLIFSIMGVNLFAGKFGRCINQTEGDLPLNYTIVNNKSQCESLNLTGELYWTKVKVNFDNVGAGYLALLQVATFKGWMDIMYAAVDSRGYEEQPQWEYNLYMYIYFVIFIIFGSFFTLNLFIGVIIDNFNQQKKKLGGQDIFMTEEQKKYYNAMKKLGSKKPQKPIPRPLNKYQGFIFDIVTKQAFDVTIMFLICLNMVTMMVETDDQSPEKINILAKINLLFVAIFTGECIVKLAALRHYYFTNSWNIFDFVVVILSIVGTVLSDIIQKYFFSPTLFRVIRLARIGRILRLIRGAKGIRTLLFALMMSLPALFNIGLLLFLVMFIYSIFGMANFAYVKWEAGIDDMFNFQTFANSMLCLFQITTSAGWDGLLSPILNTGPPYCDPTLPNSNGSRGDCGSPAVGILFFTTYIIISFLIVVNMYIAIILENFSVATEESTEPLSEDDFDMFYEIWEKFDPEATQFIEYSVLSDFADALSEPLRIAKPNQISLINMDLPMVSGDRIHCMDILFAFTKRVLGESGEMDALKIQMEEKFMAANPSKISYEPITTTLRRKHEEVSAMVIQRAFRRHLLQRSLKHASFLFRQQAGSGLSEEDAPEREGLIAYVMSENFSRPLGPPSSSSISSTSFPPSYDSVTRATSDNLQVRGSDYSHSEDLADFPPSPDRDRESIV
test details: voltage clamp current block, hHNa channel in stably transfected mammalian cells
experimental parameters: 0.1 Hz, 6 bpm; read-out: IC50 estimate, block of hHNa (Hill equation fit)
endpoint name: pIC50
# pIC50: negative log10 of molar concentration; output just the value

Task: Determine reported pIC50 for `Fc1ccc(C(OCCN2CCN(CCCc3ccccc3)CC2)c2ccc(F)cc2)cc1` ; test system: UniProt:Q14524.
Output: 6.24
